# System: L1210
# EXPERIMENT SUMMARY: In vitro inhibition of cell growth in L1210 murine leukemia cells
# Type: functional
# MEASUREMENT CONTEXT: Mus musculus, read-out: ID50 (the source's name)

COMPOUND	OUTPUT UNIT	IC50
CCCCCCCCCC[S+]([O-])C[C@H](CO)NC(=O)/C=C/c1c(C)nc(O)nc1O (stereo not given in full)	nM	140
CSC[S+]([O-])C[C@H](C)NC(=O)/C=C/c1c(C)nc(O)nc1O (stereo not given in full)	nM	70
Cc1nc(O)nc(O)c1/C=C/C(=O)N[C@@H](C)C[S+]([O-])CCl (stereo not given in full)	nM	150
CCCCSC[S+]([O-])C[C@H](CO)NC(=O)/C=C/c1c(C)nc(O)nc1O (stereo not given in full)	nM	100
CCCSC[S+]([O-])C[C@H](CO)NC(=O)/C=C/c1c(C)nc(O)nc1O (stereo not given in full)	nM	140
